Values from paper PMC6299220

CC50 reference
# Experimental Protocol: in vitro
# Particulars: African green monkey
Respond with the bare value in µM.

>  <Compound>
[2H]C([2H])([2H])n1ncc2ccc(NS(=O)(=O)CCCC)cc21 [5a-30]

>  <Endpoint Unit>
µM

>  <CC50>
180

$$$$

The compound identified as CCCCOC(=O)Nc1ccc2cnn(C)c2c1 [5d-3] registered its CC50 at 25

The compound identified as CCCCS(=O)(=O)Nc1ccc2cnn(CC)c2c1 [5a-3] registered its CC50 at 44.4

The compound identified as CCCCS(=O)(=O)Nc1ccc2[nH]nc(C)c2c1 [5g] registered its CC50 at 94

The compound identified as CCCCS(=O)(=O)Nc1ccc2cnn(C)c2c1 [DG167] registered its CC50 at 23

The compound identified as CCCOC(=O)Nc1ccc2cnn(C)c2c1 [5d-2] registered its CC50 at 6.7

The compound identified as CCOC(=O)Nc1ccc2cnn(C)c2c1 [5d-1] registered its CC50 at 110

The compound identified as Cn1ncc2ccc(NS(=O)(=O)CCc3ccccc3)cc21 [5a-22] registered its CC50 at 19.8

The compound identified as CCCCNC(=S)Nc1ccc2cnn(C)c2c1 [5b-1] registered its CC50 at 25
